# Lookup of reported MIC keyed by entry
System: Escherichia coli
Assay: Antimicrobial activity against rmtB positive Escherichia coli VOG producing beta lactamase CTX-M-14 by Etest method
Assay type: functional
experimental_readout: MIC

# compound, experimental_readout, value_reported
data = [
    ("NCC[C@H](O)C(=O)N[C@@H]1C[C@H](N)[C@@H](O[C@H]2O[C@H](CN)[C@@H](O)[C@H](O)[C@H]2O)[C@H](O)[C@H]1O[C@H]1O[C@H](CO)[C@@H](O)[C@H](N)[C@H]1O", "MIC", "> 256 µg/mL"),
    ("NC[C@H]1O[C@H](O[C@H]2[C@H](O)[C@@H](O[C@H]3O[C@H](CO)[C@@H](O)[C@H](N)[C@H]3O)[C@H](N)C[C@@H]2N)[C@H](N)C[C@@H]1O", "MIC", "> 256 µg/mL"),
    ("O=C(O)c1cn(C2CC2)c2cc(N3CCNCC3)c(F)cc2c1=O", "MIC", "> 32 µg/mL"),
    ("CCn1cc(C(=O)O)c(=O)c2cc(F)c(N3CCNCC3)cc21", "MIC", "> 256 µg/mL"),
    ("CO/N=C(\\C(=O)N[C@@H]1C(=O)N2C(C(=O)O)=C(COC(C)=O)CS[C@H]12)c1csc(N)n1", "MIC", "> 32 µg/mL"),
    ("CCN[C@@H]1C[C@H](N)[C@@H](O[C@H]2OC(CN)=CC[C@H]2N)[C@H](O)[C@H]1O[C@H]1OC[C@](C)(O)[C@H](NC)[C@H]1O", "MIC", "> 256 µg/mL"),
    ("C[C@@H](O)[C@H]1C(=O)N2C(C(=O)O)=C(SCCNC=N)C[C@H]12 [IMIPENEM ANHYDROUS]", "MIC", "0.19 µg/mL"),
    ("CC(C)(O/N=C(\\C(=O)N[C@@H]1C(=O)N2C(C(=O)[O-])=C(C[n+]3ccccc3)CS[C@H]12)c1csc(N)n1)C(=O)O", "MIC", "6 µg/mL"),
]
